B1: mRNA-splicing (parent)
chain: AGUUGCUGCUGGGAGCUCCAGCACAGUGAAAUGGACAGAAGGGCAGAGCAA

# Variants of: B1
# assayDetails: exon inclusion enrichment index; higher = more inclusion; WT1 exon 5 minigene, HEK293
Assign met to entries whose exon inclusion enrichment index meets or exceeds 0.2; assign not met to the rest.

- residueString: "AGUUAGGGAUGGGAGCUCCAGCACAGUGAAAUGGACACGAGGGCAGAGCAA"
  label: "not met"
- residueString: "AGUUGACGACGGGAGCUCCAGCACAGUGAAAUGGACAGCCGGGCAGAGCAA"
  label: "met"
- residueString: "AGUUACCACCGGGAGCUCCAGCACAGUGAAAAAGACAGAAGGGCAGAGCAA"
  label: "met"
- residueString: "AGUUGAAGAAGGGAGCUCCAGCACAGUUUAAUGGACAGAAGGGCAGAGCAA"
  label: "not met"
- residueString: "AGUUGAAGAAGGGAUGUCCAGCACAGUGAAAUGGACAGAAGGGCAGAGCAA"
  label: "met"
- residueString: "AGUUUCUUUUGGGAGCUCCAAAACAGUGAAAUGGACAGAAGGGCAGAGCAA"
  label: "not met"
- residueString: "AGUUGUGGACGGGAGCUCCAGCACAGUGAAAUGGACAGAAGGGCAGAGCAA"
  label: "met"
- residueString: "ACCUACCACCGGGAGCUCCAGCACAGUGAAAUGGACAGAAGGGCAGAGCAA"
  label: "met"
- residueString: "AGUUGAAGAAGGGAGCUCCAGCACAGUGACCUGGACAGAAGGGCAGAGCAA"
  label: "met"
- residueString: "AGUUCUUCUCGGGAGCUCCAGCACAGUGAAAUGGACACAAGGGCAGAGCAA"
  label: "met"
- residueString: "AGUGCUAUAUGGGAGCUCCAGCACAGUGAAAUGGACAGAAGGGCAGAGCAA"
  label: "not met"
- residueString: "AGUUGCUACUGGGAGCUCCAGCACAGUGAAAUGGACAGAAGGGCAGAGCAA"
  label: "met"
- residueString: "AGUUGAAGAAGGGAGCUCCAGCACAGUGAAUAGGACAGAAGGGCAGAGCAA"
  label: "not met"
- residueString: "AGUUAUAUAUGUGAGCUCCAGCACAGUGAAAUGGACAGAAGGGCAGAGCAA"
  label: "not met"
- residueString: "AGUUCUAAUCGGGAGCUCCAGCACAGUGAAAUGGACAGAAGGGCAGAGCAA"
  label: "met"
- residueString: "AGUUGCUGCUGCUAGCUCCAGCACAGUGAAAUGGACAGAAGGGCAGAGCAA"
  label: "met"
- residueString: "AGUUCGCGCCGGGAGCUAGAGCACAGUGAAAUGGACAGAAGGGCAGAGCAA"
  label: "met"
- residueString: "AGUUGAAGAAGGGAGCUCCAGCACAGUGAAAUGGAUGGAAGGGCAGAGCAA"
  label: "met"
- residueString: "AGUUCACACAGGGAGCUCCAGCACAGUGAAAUGGACAGAAAAGCAGAGCAA"
  label: "not met"
- residueString: "AGUUGACGACGGGAGCUCCAGCACAGUGAAAUGGACAAUAGGGCAGAGCAA"
  label: "met"
- residueString: "AGUUUCUUUUGUUAGCUCCAGCACAGUGAAAUGGACAGAAGGGCAGAGCAA"
  label: "not met"
- residueString: "AGUUCGCCUCGGGAGCUCCAGCACAGUGAAAUGGACAGAAGGGCAGAGCAA"
  label: "met"
- residueString: "AGUUGACGACGGGAGCUCCAGCACGGUGAAAUGGACAGAAGGGCAGAGCAA"
  label: "met"
- residueString: "AGUUCACACAGGGAGCUCCAGCACACAGAAAUGGACAGAAGGGCAGAGCAA"
  label: "not met"
- residueString: "AGUUCACACAGGGAGCUCCAGCACAGUGAAUUGGACAGAAGGGCAGAGCAA"
  label: "not met"
- residueString: "AGUUCUUCUCGGGAGCUCCAAGACAGUGAAAUGGACAGAAGGGCAGAGCAA"
  label: "met"
- residueString: "AGUUGCUGUGGGGAGCUCCAGCACAGUGAAAUGGACAGAAGGGCAGAGCAA"
  label: "met"
- residueString: "ACGUUCUUUUGGGAGCUCCAGCACAGUGAAAUGGACAGAAGGGCAGAGCAA"
  label: "met"

The reported measurements were obtained from the RNAGym collection of RNA variant scans (doi:10.1101/gr.219683.116).
